In this section, each of the compounds is paired with its reported Barnyardgrass plant response rating.
- Tested on: bamyardgrass
- Procedure Text: Test B flood test barnyardgrass
- Type: in vivo, Echinochloa crus-galli
- Experimental Conditions: Rate 125 g/ha; Pre-emergence; flood test species; scale 0 to 10 where 0 is no effect and 10 is complete control

Substance Smiles | Barnyardgrass plant response rating
CCN(C(=O)n1oc(=O)n(C)c1=O)C1CCCCC1 | 0
Cc1ccccc1-n1c(=O)on(C(=O)N(Cc2ccccc2)C(C)C)c1=O | 0
Cc1noc(C)c1Cn1c(=O)on(C(=O)N(c2ccc(F)cc2)C(C)C)c1=O | 0
CC(C)N(C(=O)n1oc(=O)n(CC(C)(C)C)c1=O)c1ccccc1 | 6
CC(C)N(C(=O)n1oc(=O)n(C2CCCCCC2)c1=O)c1ccc(F)cc1 | 6

---

In this section, each of the compounds is paired with its reported Plant response rating, Wild oats.
- Tested on: wild oat
- Procedure Text: Test B pre/postemergence wild oat
- Type: in vivo, Avena fatua
- Experimental Conditions: Preemergence, Rate 250 g/ha; scale 0 to 10 (0 no effect, 10 complete control)

Substance Smiles | Measurement Target | Plant response rating, Wild oats
CCOC(Cn1c(=O)on(C(=O)N(c2ccc(F)cc2F)C(C)C)c1=O)OCC | wild oat | 8
CC(C)N(C(=O)n1oc(=O)n(Cc2nnc(Cl)s2)c1=O)c1ccc(Cl)cc1 | wild oat | 0
CCOC(Cn1c(=O)on(C(=O)N(c2ccc(F)cc2)C(C)C)c1=O)OCC | wild oat | 9
CCOC(Cn1c(=O)on(C(=O)N(c2ccc(Cl)cc2)C(C)C)c1=O)OCC | wild oat | 3

---

- System: Italian ryegrass
- Procedure Text: Test E Italian ryegrass
- Format: in vivo, Lolium multiflorum
- Experimental Conditions: Preemergence; Rate 500 g/ha; 0 to 100 scale where 0 is no effect and 100 is complete control
Measurement Name: Plant response rating, I. Ryegrass

Substance Smiles | Measurement Name | Meas Value
CC(C)N(C(=O)n1oc(=O)n(C(C)C)c1=O)c1ccc(F)cc1F | Plant response rating, I. Ryegrass | 70
CC(C)N(C(=O)n1oc(=O)n(N(C)c2ccccc2)c1=O)c1ccc(F)cc1 | Plant response rating, I. Ryegrass | 60
C=CCn1c(=O)on(C(=O)N(c2ccc(F)cc2)C(C)C)c1=O | Plant response rating, I. Ryegrass | 90
CC(C)N(C(=O)n1oc(=O)n([C@@H](C)c2ccccc2)c1=O)c1ccccc1 | Plant response rating, I. Ryegrass | 45

---

- Tested on: morningglory
- Procedure Text: Test B pre/postemergence morningglory
- Type: in vivo, Ipomoea hederacea
- Experimental Conditions: Postemergence, Rate 500 g/ha; scale 0 to 10, 0 is no effect, 10 is complete control

Substance Smiles | Measurement Target | Plant response rating, Morningglory
CC(C)N(C(=O)n1oc(=O)n(CC2=CCCCC2)c1=O)c1ccccc1 | morningglory | 8
CCOCn1c(=O)on(C(=O)N(c2ccc(Cl)cc2)C(C)C)c1=O | morningglory | 3
CC(C)N(C(=O)n1oc(=O)n(CC2=CCCN(C)C2)c1=O)c1ccccc1 | morningglory | 0
CCCCn1c(=O)on(C(=O)N(c2ccc(Cl)cc2)C(C)C)c1=O | morningglory | 6

---

- System: soybean
- Procedure Text: Test B pre/postemergence soybean
- Assay type: in vivo, Glycine max
- Experimental Conditions: Rate 250 g/ha, Postemergence; scale 0 to 10, 0 is no effect, 10 is complete control

Compound | Measurement Target | Plant response rating, Soybean
CC(C)N(C(=O)n1oc(=O)n(C)c1=O)c1ccc(Cl)cc1 | soybean | 7
CC(C)N(C(=O)n1oc(=O)n(C(C)c2ccccc2)c1=O)c1ccc(Cl)cc1 (centres unmarked) | soybean | 3
CN(C(=O)n1oc(=O)n(Cc2ccccc2)c1=O)c1ccccc1 | soybean | 0
Cc1ccc(N(C(=O)n2oc(=O)n(C(C)C)c2=O)C(C)C)cc1 | soybean | 4
COc1ccccc1Cn1c(=O)on(C(=O)N(c2ccc(F)cc2)C(C)C)c1=O | soybean | 4
Cc1onc(-c2ccccc2)c1-n1c(=O)on(C(=O)N(c2ccc(F)cc2)C(C)C)c1=O | soybean | 0
C=CCn1c(=O)on(C(=O)N(c2ccc(F)cc2)C(C)C)c1=O | soybean | 6
CC(C)N(C(=O)n1oc(=O)n(C(C)(C)C)c1=O)c1ccccc1 | soybean | 4

---

- Tested on: morningglory
- Procedure Text: Test B pre/postemergence morningglory
- Assay type: in vivo, Ipomoea hederacea
- Experimental Conditions: Rate 62 g/ha, Postemergence; scale of 0 to 10 where 0 is no effect and 10 is complete control

Compound | Morningglory plant response rating
CC(C)N(C(=O)n1oc(=O)n(N(C)c2ccccc2)c1=O)c1ccc(F)cc1 [Compound 177] | 0
CC(C)N(C(=O)n1oc(=O)n(C2CCCCCC2)c1=O)c1ccc(F)cc1 [Compound 340] | 2
Cc1ccc(N(C(=O)n2oc(=O)n(C(C)C)c2=O)C(C)C)cc1 [Compound 132] | 3
Cc1nc(C)c(-n2c(=O)on(C(=O)N(c3ccccc3)C(C)C)c2=O)s1 [Compound 197] | 3

---

- Test system: morningglory
- Procedure Text: Test B pre/postemergence morningglory
- Assay type: in vivo, Ipomoea hederacea
- Experimental Conditions: Preemergence, Rate 500 g/ha; scale 0 to 10 (0 no effect, 10 complete control)
In this section, each of the compounds is paired with its reported Morningglory plant response rating.

Compound | Morningglory plant response rating
COc1nc(OC)nc(N(C(=O)n2oc(=O)n(-c3c(C)cccc3C)c2=O)C(C)C)n1 | 0
CC(C)N(C(=O)n1oc(=O)n(C(C)c2ccccc2)c1=O)c1ccc(Cl)cc1 (centres unmarked) | 0
Cc1ccc(N(C(=O)n2oc(=O)n(C(C)C)c2=O)C(C)C)cc1 | 2
CCN(Cc1ccncc1)C(=O)n1oc(=O)n(C(C)C)c1=O | 0
CN(C(=O)n1oc(=O)n(Cc2ccccc2)c1=O)c1ccccc1 | 0

---

In this section, each of the molecules is paired with its reported Wild oats plant response rating.
- System: wild oat
- Procedure Text: Test B pre/postemergence wild oat
- Assay type: in vivo, Avena fatua
- Experimental Conditions: Preemergence, Rate 62 g/ha; scale of 0 to 10 where 0 is no effect and 10 is complete control
- Description: […] At the same time, these crop and weed species were also treated with postemergence applications of test chemicals formulated in the same manner. […] Treated plants and controls were maintained in a greenhouse for twelve to sixteen days, after which all species were compared to controls and visually evaluated. […]
Measurement Name: Wild oats plant response rating

Molecule | Meas Value
CCN(C(=O)n1oc(=O)n(C(C)C)c1=O)c1nncs1 | 0
COCC(C)N(C(=O)n1oc(=O)n(-c2ccccc2C)c1=O)c1ccc(F)cc1 (stereo not drawn) | 0
CC(=O)OCn1c(=O)on(C(=O)N(c2ccc(F)cc2)C(C)C)c1=O | 0

---

In this section, each of the molecules is paired with its reported Crabgrass plant response rating.
- Test system: crabgrass
- Procedure Text: Test B pre/postemergence crabgrass
- Type: in vivo, Digitaria sanguinalis
- Experimental Conditions: Rate 62 g/ha, Postemergence; scale of 0 to 10 where 0 is no effect and 10 is complete control
- Procedure: […] At the same time, these crop and weed species were also treated with postemergence applications of test chemicals formulated in the same manner. […] Treated plants and controls were maintained in a greenhouse for twelve to sixteen days, after which all species were compared to controls and visually evaluated. […]

Molecule | Crabgrass plant response rating
CC(C)N(C(=O)n1oc(=O)n(C2CCCC(C(F)(F)F)C2)c1=O)c1ccc(F)cc1 (centres unmarked) | 0
CC(C)N(C(=O)n1oc(=O)n(CC2CCC2)c1=O)c1ccc(F)cc1 | 2
CC(C)N(C(=O)n1oc(=O)n(N2CCOCC2)c1=O)c1ccc(F)cc1F | 1
Cc1onc(-c2ccccc2)c1-n1c(=O)on(C(=O)N(c2ccc(F)cc2)C(C)C)c1=O | 0
Cc1nc(Cl)sc1C(C)n1c(=O)on(C(=O)N(c2ccccc2)C(C)C)c1=O (centres unmarked) | 0

---

- Tested on: blackgrass
- Procedure Text: Test B pre/postemergence blackgrass
- Format: in vivo, Alopecurus myosuroides
- Experimental Conditions: Preemergence, Rate 250 g/ha
Blackgrass plant response rating (0 to 10 scale) less than 2 is Satisfied; Blackgrass plant response rating (0 to 10 scale) greater than or equal to 2 is Not satisfied.

Molecule | Class Name
COCn1c(=O)on(C(=O)N(c2ccccc2)C(C)C)c1=O [Compound 562] | Not satisfied
CC(C)N(C(=O)n1oc(=O)n(CCC(F)(F)F)c1=O)c1ccc(Cl)cc1 [Compound 554] | Not satisfied
COC(=O)CCCn1c(=O)on(C(=O)N(c2ccc(Cl)cc2)C(C)C)c1=O [Compound 543] | Satisfied
CC(C)N(C(=O)n1oc(=O)n(COCc2ccccc2)c1=O)c1ccccc1 [Compound 579] | Satisfied
CCCCCCn1c(=O)on(C(=O)N(c2ccccc2)C(C)C)c1=O [Compound 558] | Not satisfied
